Measured On: Human IP6K1 (Homo sapiens, UniProt Q92551)
Construct: GST (N, cleaved yes); made in house; host or cells: C43 E. coli, pGEX-6P-2
Sequence (Q92551 whole entry): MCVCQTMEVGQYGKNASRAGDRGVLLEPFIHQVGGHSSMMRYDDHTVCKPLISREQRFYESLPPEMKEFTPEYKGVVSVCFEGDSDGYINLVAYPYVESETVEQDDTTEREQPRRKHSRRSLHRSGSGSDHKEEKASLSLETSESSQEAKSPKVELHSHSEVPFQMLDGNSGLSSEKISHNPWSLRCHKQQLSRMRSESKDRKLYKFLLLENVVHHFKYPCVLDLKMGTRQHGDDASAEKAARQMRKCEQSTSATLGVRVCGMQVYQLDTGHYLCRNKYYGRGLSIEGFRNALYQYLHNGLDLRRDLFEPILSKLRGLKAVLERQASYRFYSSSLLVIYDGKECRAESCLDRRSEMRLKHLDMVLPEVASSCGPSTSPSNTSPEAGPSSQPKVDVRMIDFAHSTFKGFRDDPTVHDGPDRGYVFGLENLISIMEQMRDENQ
Protocol Text: IP6K1 high-throughput screen of the Sigma LOPAC (ADP-Glo Max, single point);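 also: final compound concentration 10µM in 5% DMSO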
Type: biochemical
Recorded Conditions: Sigma LOPAC single-point screen, ADP-Glo Max raw signal per well
Where a name gives a salt, the structure may show the parent alone.
Raw Signal by entry:
Quantity Name: Raw Signal

[
  {
    "Molecule": "C=C[C@@]1(C)CC(=O)[C@]2(O)[C@@]3(C)[C@@H](O)CCC(C)(C)[C@@H]3[C@H](O)[C@H](OC(C)=O)[C@@]2(C)O1 [Forskolin]",
    "Quantity Name": "Raw Signal",
    "Recorded Value": 61603
  },
  {
    "Molecule": "CCCCCCCCCCCCCCCCOCC(COCC(F)(F)F)OP(=O)(O)OC (centres unmarked) [MJ33]",
    "Quantity Name": "Raw Signal",
    "Recorded Value": 57341
  },
  {
    "Molecule": "O=C(O)/C=C\\C(=O)O.c1cnc(N2CCN(Cc3ccc4c(c3)OCO4)CC2)nc1 [Piribedil maleate]",
    "Quantity Name": "Raw Signal",
    "Recorded Value": 62540
  },
  {
    "Molecule": "Cc1ccc(Cl)c(Nc2ccccc2C(=O)O)c1Cl [Meclofenamic acid sodium]",
    "Quantity Name": "Raw Signal",
    "Recorded Value": 59966
  },
  {
    "Molecule": "CC(C)(C)c1onc(OCP(=O)(O)O)c1CC(N)C(=O)O (centres unmarked) [ATPO]",
    "Quantity Name": "Raw Signal",
    "Recorded Value": 60120
  },
  {
    "Molecule": "CC(C)(C)C1(O)CCN2CC3c4ccccc4CCc4cccc(c43)C2C1.Cl (racemic) [(±)-Butaclamol hydrochloride]",
    "Quantity Name": "Raw Signal",
    "Recorded Value": 57693
  },
  {
    "Molecule": "CCc1cccc2c3c([nH]c12)C(CC)(CC(=O)O)OCC3 (centres unmarked) [Etodolac]",
    "Quantity Name": "Raw Signal",
    "Recorded Value": 60333
  },
  {
    "Molecule": "CC/C(=C(\\c1ccccc1)c1ccc(OCCN(C)C)cc1)c1ccccc1 [Tamoxifen citrate]",
    "Quantity Name": "Raw Signal",
    "Recorded Value": 60879
  },
  {
    "Molecule": "Cl.c1ccc(CN2CCC3(CCCc4ccccc43)CC2)cc1 [L-687,384 hydrochloride]",
    "Quantity Name": "Raw Signal",
    "Recorded Value": 58533
  },
  {
    "Molecule": "NC(N)=NOCC[C@H](N)C(=O)O.O=S(=O)(O)O [L-Canavanine sulfate]",
    "Quantity Name": "Raw Signal",
    "Recorded Value": 61689
  },
  {
    "Molecule": "CC(C)(C)NCC(O)COc1cccc2[nH]c(=O)[nH]c12.Cl (racemic) [(±)-CGP-12177A hydrochloride]",
    "Quantity Name": "Raw Signal",
    "Recorded Value": 57688
  },
  {
    "Molecule": "C1CCc2nnnn2CC1 [Pentylenetetrazole]",
    "Quantity Name": "Raw Signal",
    "Recorded Value": 57450
  },
  {
    "Molecule": "O=C[C@H](Cl)[C@@H](O)[C@H](O)[C@H](O)CO [2-Chloro-2-deoxy-D-glucose]",
    "Quantity Name": "Raw Signal",
    "Recorded Value": 57775
  },
  {
    "Molecule": "COc1ccc(OC)c(C(O)C(C)N)c1 (centres unmarked) [Methoxamine hydrochloride]",
    "Quantity Name": "Raw Signal",
    "Recorded Value": 57572
  },
  {
    "Molecule": "Fc1ccc(C(c2ccc(F)cc2)N2CCN(C/C=C/c3ccccc3)CC2)cc1 [Flunarizine dihydrochloride]",
    "Quantity Name": "Raw Signal",
    "Recorded Value": 58645
  },
  {
    "Molecule": "O=C(O)[C@@H]1[C@H](C(=O)O)[C@H]2CC[C@@H]1O2 [Endothall]",
    "Quantity Name": "Raw Signal",
    "Recorded Value": 58370
  },
  {
    "Molecule": "Nc1ncnc2c1ncn2C1CCCC1 [9-cyclopentyladenine]",
    "Quantity Name": "Raw Signal",
    "Recorded Value": 60166
  }
]
